growth listing for selected compounds.
# Tested on: MDA-MB-435 melanoma
# procedure_text: NCI-60 one-dose screen, 48 h (100 = growth as untreated, 0 = no growth, -100 = all killed)
# condition_description: 10 µM unless noted
Compounds without any hit were thinned out: in the full panel of roughly 83,000, 20% have a hit. Activity calls are given as the source filed them. The calls were made as follows: active = growth percent below 10; inactive = the rest.

Past entries and their recorded results:
compound: COc1ccc([C@H]2[C@H](O)C(=O)N2c2cc(OC)c(OC)c(OC)c2)cc1F
growth: -10.4% (active)

compound: CCc1ccc(SC2c3ccc(N(CC)CC)cc3Oc3nc(N)c(C#N)c(N)c32)cc1 (centres undefined)
growth: -0.759% (active)

compound: Cn1ccnc1C(=O)/C=C/c1ccc(NC(=O)c2ccc(F)cc2)cc1
growth: 43.1% (inactive)

compound: NC(N)=Nc1ccc(Oc2cccc(Nc3ccc(Cl)c(C(F)(F)F)c3)c2)cc1
growth: 32.3% (inactive)

compound: COc1ccc2c(c1)c(CC(=O)[Se]CCC#N)c(C)n2C(=O)c1ccc(Cl)cc1
growth: -13.4% (active)

Q) Requested field: growth. Item: `Cc1ccc(S(=O)(=O)NCCNc2nc(Nc3ccc(N4CCN(C)CC4)cc3)nc3ccsc23)cc1`
A) 109% (inactive)

Q) Requested field: growth. Item: `Nc1nc(-c2cccc([N+](=O)[O-])c2)c(N=Nc2ccc([N+](=O)[O-])cc2Cl)s1`
A) 6.11% (active)

Q) Requested field: growth. Item: CCCn1cnc2c(c1=N)C(c1ccc(Cl)cc1)c1sc3c(C)cccc3c1O2 (centres undefined)
A) -40% (active)

Q) Requested field: growth. Item: `O=S(=O)(NCCCNc1nccc(-c2[nH]c(-c3ccccc3)nc2-c2ccc(Cl)c(O)c2)n1)c1cccc2ccccc12`
A) 16.6% (inactive)

Q) Requested field: growth. Item: `Cc1nn(-c2ccccc2)c2ncnc(N/N=C/c3ccccc3O)c12`
A) 16.3% (inactive)

Q) Requested field: growth. Item: `CC1(C)[C@@H](O)CC[C@]2(C)[C@H]3CC[C@@H]4[C@H]5[C@H](C(=O)/C=C\c6ccncc6)CC[C@]5(O)CC[C@@]4(C)[C@]3(C)CC[C@@H]12`
A) 14.9% (inactive)

Q) Requested field: growth. Item: `Cc1ccc(NC(=S)NNC(=S)Nc2ccc(C)cc2)cc1`
A) 102% (inactive)

Q) Requested field: growth. Item: `O=C(c1ccc(O)cc1)[C@@H]1CN[C@@]2(C(=O)Nc3ccccc32)[C@H]1c1ccc(F)cc1`
A) 107% (inactive)
